# test.system: human CYP11B1 (Homo sapiens, UniProt P15538)
# Construct: expressed in transfected cells
# assay.overview: G-402 cellular enzyme assay, human CYP11B1 (cortisol release, HTRF)
# Type: cell-based
# protocol.conditions: G-402 cells expressing human CYP11B1; 1 μM Deoxycortisol
Lab note: anything with EC50 below 700 nM is marked 1 (yes); values at 700 nM or higher are marked 0 (no).

These solved cases illustrate the format of a correct answer.
[
  {
    "molecule": "CN1C(=O)CCc2cc(-c3cncc(CNC(=O)c4ncccc4Cl)c3)c(F)cc21",
    "test.system": "human CYP11B1 (Homo sapiens, UniProt P15538)",
    "assigned.class": "1 (yes)"
  },
  {
    "molecule": "Cc1oncc1C(=O)NCc1cncc(-c2ccc3c(c2)CCC(=O)N3C)c1",
    "test.system": "human CYP11B1 (Homo sapiens, UniProt P15538)",
    "assigned.class": "1 (yes)"
  },
  {
    "molecule": "CCS(=O)(=O)NCc1cncc(-c2ccc3c(n2)CCC(=O)N3C)c1",
    "test.system": "human CYP11B1 (Homo sapiens, UniProt P15538)",
    "assigned.class": "0 (no)"
  },
  {
    "molecule": "CCC(=O)NC1(c2cncc(-c3ccc4c(c3)CCC(=O)N4C)c2)COC1",
    "test.system": "human CYP11B1 (Homo sapiens, UniProt P15538)",
    "assigned.class": "0 (no)"
  }
]

Exercise: Hello, is EC50 of the following molecule strictly smaller than 700 nM? Cc1nc(C(=O)NCc2cncc(-c3ccc4c(c3)CCC(=O)N4C)c2)c(C(F)(F)F)o1
Key: 0 (no)

Exercise: Hello, is EC50 of the following molecule strictly smaller than 700 nM? CCC(NS(=O)(=O)CC)c1cncc(-c2ccc3c(c2)CCC(=O)N3C)c1 (racemic)
Key: 0 (no)

Exercise: Hello, is EC50 of the following molecule strictly smaller than 700 nM? CCS(=O)(=O)N1CCC(Oc2cncc(-c3ccc4c(c3)CCC(=O)N4C)c2)CC1
Key: 1 (yes)

---

For each of the molecules below, state its pEC50.
# test.system: human CYP11B1 (Homo sapiens, UniProt P15538)
# assay.overview: G-402 cellular enzyme assay, human CYP11B1 (cortisol release, HTRF)
# protocol.conditions: G-402 cells expressing human CYP11B1; 1 μM Deoxycortisol
Where a name gives a salt, the structure may show the parent alone.
Give bare numbers, as −log10 of the molar value.

Sample records with pEC50:
[
  {
    "molecule": "CN1C(=O)CCc2cc(-c3cncc(CNC(=O)c4cnn(C)c4)c3)ccc21",
    "pEC50": 5.97
  },
  {
    "molecule": "CCC(=O)N1CCC[C@H]1COc1cncc(-c2ccc3c(c2)CCC(=O)N3C)c1",
    "pEC50": 5.57
  },
  {
    "molecule": "CCS(=O)(=O)NC(C)c1cncc(-c2cc3c(cc2F)N(C)C(=O)CC3)c1 (racemic) [Example 178]",
    "pEC50": 6.27
  },
  {
    "molecule": "COc1ccc(C(=O)NCc2cncc(-c3ccc4c(c3)CCC(=O)N4C)c2)nn1",
    "pEC50": 6.85
  }
]

# batch size: 5; output pEC50 per entry
1. CN1C(=O)CCc2cc(-c3cncc(CN)c3)c(F)cc21
2. CCC(=O)NC(C)c1cncc(-c2ccc3c(c2)CCC(=O)N3C)c1Cl (single isomer, unassigned)
3. CN1C(=O)CCc2cc(-c3cncc(N4CC5(CN(C(=O)OC(C)(C)C)C5)C4)c3)ccc21
4. CN(Cc1cncc(-c2cc3c(cc2F)N(C)C(=O)CC3)c1)C(=O)c1ncccc1Cl
5. CN1C(=O)CCc2cc(-c3cncc(OCCN)c3)c(F)cc21 [Example 238, hydrochloride]

Key:
1: 6.24; 2: 5.91; 3: 5.25; 4: 7.51; 5: 6.29

# batch size: 6; output pEC50 per entry
1. CN1C(=O)CCc2cc(-c3cncc(NCc4ccccc4)c3)ccc21
2. CN1C(=O)CCc2cc(-c3cncc(CNC(=O)c4cnc(Cl)cn4)c3)ccc21
3. Cc1c(CN)cncc1-c1ccc2c(c1)CCC(=O)N2C [Example 222, hydrochloride]
4. Cc1noc(C)c1C(=O)NCCOc1cncc(-c2cc3c(cc2F)N(C)C(=O)CC3)c1
5. CCS(=O)(=O)N1CCC[C@H]1COc1cncc(-c2ccc3c(c2)CCC(=O)N3C)c1
6. Cc1noc(C)c1C(=O)NC1(c2cncc(-c3ccc4c(c3)CCC(=O)N4C)c2)CC1

Key:
7.30
6.81
6.00
6.63
6.05
5.80

# batch size: 2; output pEC50 per entry
1. CN1C(=O)CCc2cc(-c3cncc(OC[C@@H]4CCN4C(=O)OC(C)(C)C)c3)ccc21
2. CN(Cc1cncc(-c2ccc3c(c2)CCC(=O)N3C)c1)C(=O)c1cnn(C)c1

Key:
[6.06, 6.73]

---

# test.system: human CYP11B2 (Homo sapiens)
# Sequence (P19099 25-503): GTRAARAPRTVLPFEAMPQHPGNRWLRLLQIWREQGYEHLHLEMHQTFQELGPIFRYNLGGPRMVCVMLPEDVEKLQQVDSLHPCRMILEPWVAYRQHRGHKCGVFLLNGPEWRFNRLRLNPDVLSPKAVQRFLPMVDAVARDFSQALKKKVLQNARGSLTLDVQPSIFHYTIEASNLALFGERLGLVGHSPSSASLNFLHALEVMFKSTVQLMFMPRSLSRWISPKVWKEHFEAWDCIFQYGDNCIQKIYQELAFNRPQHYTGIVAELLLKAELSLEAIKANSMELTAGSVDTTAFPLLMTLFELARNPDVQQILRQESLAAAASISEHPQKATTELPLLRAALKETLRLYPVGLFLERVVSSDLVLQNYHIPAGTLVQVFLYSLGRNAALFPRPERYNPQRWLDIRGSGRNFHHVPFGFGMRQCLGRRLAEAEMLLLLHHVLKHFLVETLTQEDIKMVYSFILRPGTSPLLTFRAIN
# assay.overview: G-402 cellular enzyme assay, human CYP11B2 (aldosterone release, HTRF)
# protocol.conditions: G-402 cells expressing human CYP11B2; 1 μM Deoxycorticosterone
Structures can show the parent of a compound that is named as a salt.
experimental.endpoint: EC50 (nM)
One number for each entry, in nM.

Sample records with EC50:
[
  {
    "compound": "Cc1noc(C)c1C(=O)N(C)Cc1cncc(-c2ccc3c(c2)CCC(=O)N3C)c1",
    "value": 14
  },
  {
    "compound": "CN1C(=O)CCc2cc(-c3cncc(C4=CN(C(=O)OC(C)(C)C)CCC4)c3)ccc21",
    "value": 19
  },
  {
    "compound": "Cc1noc(C(F)(F)F)c1C(=O)NCc1cncc(-c2ccc3c(c2)CCC(=O)N3C)c1",
    "value": 47
  }
]

# batch size: 5; output EC50 per entry
1. CCNC[C@@H]1CCCN1c1cncc(-c2ccc3c(c2)CCC(=O)N3C)c1
2. CC(N)c1cncc(-c2ccc3c(c2)CCC(=O)N3C)c1 (single isomer, unassigned) [Example 65, hydrochloride]
3. CCS(=O)(=O)NCc1cncc(-c2cc(F)c3c(ccc(=O)n3C)c2)c1
4. CCS(=O)(=O)Nc1cncc(-c2ccc3c(c2)CCC(=O)N3C)c1
5. CN1C(=O)CCc2cc(-c3cncc(N4CCC[C@H]4CO)c3)ccc21

Key:
[829, 315, 3100, 170, 19]

---

# test.system: human CYP11B1 (Homo sapiens, UniProt P15538)
# Sequence (P15538 25-503): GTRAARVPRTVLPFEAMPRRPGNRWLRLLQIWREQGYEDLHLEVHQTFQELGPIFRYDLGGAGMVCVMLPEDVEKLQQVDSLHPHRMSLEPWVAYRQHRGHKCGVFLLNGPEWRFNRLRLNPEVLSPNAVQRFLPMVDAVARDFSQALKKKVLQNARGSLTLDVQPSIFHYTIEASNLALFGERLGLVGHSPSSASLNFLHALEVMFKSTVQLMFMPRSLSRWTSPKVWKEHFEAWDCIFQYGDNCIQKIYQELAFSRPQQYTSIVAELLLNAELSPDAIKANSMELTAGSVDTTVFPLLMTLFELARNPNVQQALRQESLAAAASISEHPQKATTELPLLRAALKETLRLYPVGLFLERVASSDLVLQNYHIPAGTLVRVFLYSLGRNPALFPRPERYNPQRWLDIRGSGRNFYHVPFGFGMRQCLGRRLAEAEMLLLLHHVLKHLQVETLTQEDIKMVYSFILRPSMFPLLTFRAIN
# assay.overview: G-402 cellular enzyme assay, human CYP11B1 (cortisol release, HTRF)
# protocol.conditions: G-402 cells expressing human CYP11B1; 1 μM Deoxycortisol
For each of the compounds below, state its EC50.
One number for each entry, in nM.

Sample records with EC50:
[
  {
    "compound": "O=C1CCc2cc(-c3cncc(CNC(=O)c4ncccc4Cl)c3)cc(Cl)c2N1",
    "unit.tag": "nM",
    "EC50": 2240
  },
  {
    "compound": "CCC(=O)NCc1cncc(-c2ccc3c(c2)CCC(=O)N3C)c1",
    "unit.tag": "nM",
    "EC50": 1590
  },
  {
    "compound": "CN1C(=O)CCc2cc(-c3cncc(CN4CCC[C@H]4COCC(F)(F)F)c3)ccc21",
    "unit.tag": "nM",
    "EC50": 390
  }
]

The value of EC50 measured for the compound CCC(=O)N1CC[C@H](Oc2cncc(-c3cc4c(cc3F)N(C)C(=O)CC4)c2)C1 turned out to be 535

---

For each of the compounds below, state its EC50.
# test.system: human CYP11B1 (Homo sapiens, UniProt P15538)
# assay.overview: G-402 cellular enzyme assay, human CYP11B1 (cortisol release, HTRF)
# protocol.conditions: G-402 cells expressing human CYP11B1; 1 μM Deoxycortisol
One number for each entry, in nM.

Sample records with EC50:
[
  {
    "compound": "CCC(=O)N[C@H]1CC[C@H](Oc2cncc(-c3ccc4c(c3)CCC(=O)N4C)c2)CC1 [Example 144]",
    "value": 460
  },
  {
    "compound": "Cc1nc(C(=O)NCc2cncc(-c3ccc4c(c3)CCC(=O)N4C)c2)co1 [Example 109]",
    "value": 712
  },
  {
    "compound": "Cc1c(CN(C)C(=O)c2ncccc2Cl)cncc1-c1ccc2c(c1)CCC(=O)N2C [Example 229]",
    "value": 656
  }
]

Now turn to the next compound.
The value of EC50 measured for the compound CN1C(=O)CCc2cc(-c3cncc(N4C(=O)CC[C@H]4CO)c3)ccc21 [Example 13] turned out to be 17900
